Every entry's value here was drawn from patent US20090275574A1.

# Assay System: hM3 (human Muscarinic receptor subtype 3) (Homo sapiens)
# Sequence (P20309 whole entry): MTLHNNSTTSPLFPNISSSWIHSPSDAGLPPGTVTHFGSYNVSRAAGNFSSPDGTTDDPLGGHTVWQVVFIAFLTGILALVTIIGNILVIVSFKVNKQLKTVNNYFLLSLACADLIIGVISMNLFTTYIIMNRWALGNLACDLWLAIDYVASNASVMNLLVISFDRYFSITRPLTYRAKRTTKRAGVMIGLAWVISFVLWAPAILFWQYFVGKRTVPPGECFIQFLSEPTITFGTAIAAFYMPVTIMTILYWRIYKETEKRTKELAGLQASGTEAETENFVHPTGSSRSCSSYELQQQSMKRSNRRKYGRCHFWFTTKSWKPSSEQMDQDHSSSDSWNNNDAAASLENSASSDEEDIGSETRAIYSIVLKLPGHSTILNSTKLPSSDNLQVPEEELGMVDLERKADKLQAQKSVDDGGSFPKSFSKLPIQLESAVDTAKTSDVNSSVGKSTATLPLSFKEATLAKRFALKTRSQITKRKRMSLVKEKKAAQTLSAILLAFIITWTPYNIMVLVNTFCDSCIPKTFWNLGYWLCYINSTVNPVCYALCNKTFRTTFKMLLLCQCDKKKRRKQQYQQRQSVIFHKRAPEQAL
# Experimental Protocol: Human M3 calcium mobilization FLIPR assay
# Experimental Conditions: hM3 expressed in CHO cells, intracellular Ca2+ release (FLIPR)
# Description: Human M1, rat M1, Human M3 and Human M5 Calcium Mobilization FLIPR™ Assay The compound activity in the present invention (EC50 or IC50) is measured using a 384 plate-based imaging assay that monitors drug induced intracellular Ca^2+ release in whole cells. […] Inhibition of hM3 and hM5 by compounds is determined by the decrease in fluorescent signal in response to 2 nM acetylcholine activation. […] Cell plates are then transferred to the FLIPR, ready for compound additions. […]
Here, each record is paired with measured EC50 data.

Recorded EC50, per entry:
O=C1CO[C@H]2CCCC[C@@H]2N1C1CCN(C2CCC(COCCF)CC2)CC1 (single isomer, unassigned) [Example 24]
> 40 µM
O=C1NC[C@H]2CCCC[C@@H]2N1C1CCN(C2CCC(COCC(F)F)CC2)CC1 (single isomer, unassigned)
> 40 µM
CC(C)OCC1CCC(N2CCC(N3C(=O)CO[C@H]4CCC(F)(F)C[C@@H]43)CC2)CC1 (single isomer, unassigned) [Example 38]
> 40 µM
CCOC[C@H]1CC[C@@H](N2CCC(N3C(=O)CO[C@H]4CCCC[C@@H]43)CC2)C1
> 2.1 µM
CC(C)OCC1CCC(N2CCC(N3C(=O)CO[C@H]4CCCC[C@@H]43)CC2)CC1 (single isomer, unassigned) [Example 19]
> 40 µM
CCOCC1CCC(N2CCC(N3C(=O)CO[C@H]4CCCC[C@@H]43)CC2)CC1 (single isomer, unassigned) [Example 13]
> 40 µM
CCOCC1CC(N2CCC(N3C(=O)CO[C@H]4CCCC[C@@H]43)CC2)C1 (single isomer, unassigned)
> 40 µM
O=C1CO[C@H]2CCCC[C@@H]2N1C1CCN(C2CCC(COCC(F)F)CC2)CC1 (single isomer, unassigned) [Example 26]
> 40 µM
O=C1CO[C@H]2CCCC[C@@H]2N1C1CCN(C2CCC(COCCF)CC2)CC1 (single isomer, unassigned) [Example 25]
> 40 µM
CCOCC1CCC(N2CCC(N3C(=O)NC[C@H]4CCCC[C@@H]43)CC2)CC1 (mixture of isomers)
1.1 µM

Value lookup for EC50; key = O=C1COC2CCCC2N1C1CCN([C@H]2CC[C@@H](COCC3CC3)CC2)CC1 (single isomer, unassigned)
> 40 µM

Value lookup for EC50; key = CCC1CCC(N2CCC(N3C(=O)NC[C@H]4CCCC[C@@H]43)CC2)CC1 (mixture of isomers)
> 40 µM

Value lookup for EC50; key = CCOCC1CCC(N2CCC(N3C(=O)CO[C@H]4CCCC[C@@H]43)CC2)C1 (single isomer, unassigned) [Example 44]
> 10 µM
